tested on: primary human hepatic stellate cells (donor 1); assay: scaled lipid accumulation score (0 = DMSO-like, 1 = nortriptyline-like); higher = stronger HSC inactivation (lipid re-accumulation), active = hit call of the paper; details: library stock concentration: 10 mM; 48 h
Structures can show the parent of a compound that is named as a salt. Screen size: about 5,800 compounds; about 620 (11%) showed activity.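 The calls were made as follows: active = score above a cut-off or among the top three wells of a plate; in these data no inactive exceeds 0.85.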 This excerpt belongs to a sample that is enriched for actives.
Labels: yes (1) for active, no (0) for inactive

> print(dat)
                                    molecule  assigned.class
 1  O=C(O)C(Cc1ccccc1[N+](=O)[O-])=NNc1nc(-c2ccc(Cl)c(Cl)c2)cs1          no (0)
 2  O=C1O[C@H]([C@@H](O)CO)C([O-])=C1O.[Na+] [Sodium ascorbate]          no (0)
 3                                   NC(N)=O          no (0)
 4  CCCNS(=O)(=O)Nc1ncnc(OCCOc2ncc(Br)cn2)c1-c1ccc(Br)cc1 [Macitentan]          no (0)
 5  COc1cc(C(O)C(=O)O)ccc1O (stereo not drawn)          no (0)
 6  CC(C)NC[C@@H](C(=O)N1CCN(c2ncnc3c2[C@H](C)C[C@H]3O)CC1)c1ccc(Cl)cc1         yes (1)
 7         O=C(O)C1CCCNC1 (stereo not drawn)          no (0)
 8  Cc1nc(N=Nc2ccc(C(=O)O)cc2)c(COP(=O)(O)O)c(C=O)c1O          no (0)
 9  O=C1C(Cl)=C(N2CCOCC2)C(=O)N1c1ccc(Cl)c(Cl)c1          no (0)
10  O=C(/C=C\n1cnc(-c2cc(C(F)(F)F)cc(C(F)(F)F)c2)n1)N1CC(F)(F)C1          no (0)
11  COc1ccc(-c2ccc3cc(C(=O)O)ccc3c2)cc1C12CC3CC(CC(C3)C1)C2 [Adapalene]          no (0)
12  O=C(c1ccccc1)c1ccc2n1CCC2C(=O)O (stereo not drawn) [Ketorolac tris salt]          no (0)
13  O=C(CO)N1CCC(c2n[nH]c(-c3ccc(Cl)cc3)c2-c2ccncn2)CC1          no (0)
14  O=C1Cc2c([nH]c3ccc(Br)cc23)-c2ncccc2N1 [1-Azakenpaullone]          no (0)
15  CCN1CCN(c2ccc(Nc3cc(N(C)C(=O)Nc4c(Cl)c(OC)cc(OC)c4Cl)ncn3)cc2)CC1          no (0)
16  O=C(O)c1ccc2c(c1)nc(Nc1cccc(Cl)c1)c1ccncc12          no (0)
17  O=C(N/N=C/c1ccc(O)c(O)c1)c1cc2ccccc2cc1O [Dynasore]          no (0)
18                      N=C(N)NC(=N)N1CCOCC1          no (0)
19  COc1cc(N2CCC(N3CCN(C)CC3)CC2)ccc1Nc1ncc(Cl)c(-c2c[nH]c3ccccc23)n1         yes (1)
20  S=C(NCc1ccc2c(c1)OCO2)N1CCN(c2ncnc3c2oc2ccccc23)CC1 [Amuvatinib (MP-470)]          no (0)
21  COc1c(OC)c2occc2c2oc(=O)ccc12 [Pimpinellin]          no (0)
22  CC(=O)OC[C@H]1O[C@@H]([S-])[C@H](OC(C)=O)[C@@H](OC(C)=O)[C@@H]1OC(C)=O.CCP(CC)CC.[Au+] [Auranofin]          no (0)
23  O=C(O)c1ccc2c(c1)nc(Nc1cccc(Cl)c1)c1ccncc12 [CX-4945 (Silmitasertib)]          no (0)
24  CC(/C=C1\SC(=S)N(CC(=O)O)C1=O)=C\c1ccccc1 [Epalrestat]          no (0)
25  O=C(c1ccccc1)c1ccc2n1CCC2C(=O)O (stereo not drawn) [Ketorolac]          no (0)
26  CN(C)c1nc(N)c(C(=O)NC(=N)N)nc1Cl [5-(N,N-Dimethyl)amiloride hydrochloride]          no (0)
27  O=c1[nH]c(=S)[nH]c(-c2ccccc2)c1Cc1c(O)ccc2ccccc12 [Cambinol]          no (0)
28  COc1cc(N2CCC(N)CC2)ccc1Nc1ncc(Cl)c(-c2c[nH]c3ccccc23)n1          no (0)
29  CCCCc1nc2ccn(Cc3cccs3)c(=O)c2n1Cc1ccc(-c2ccccc2-c2nn[nH]n2)cc1          no (0)
30     N=C(N)NC(=N)N1CCOCC1 [Moroxydine HCl]          no (0)
31  C[C@H](Nc1ncnc2nc[nH]c12)c1cc2cccc(Cl)c2c(=O)n1-c1ccccc1          no (0)
32  S=C(NCc1ccc2c(c1)OCO2)N1CCN(c2ncnc3c2oc2ccccc23)CC1          no (0)
33  COc1cc2nccc(Oc3ccc(NC(=O)C4(C(=O)Nc5ccc(F)cc5)CC4)cc3)c2cc1OC [Cabozantinib malate (XL184)]          no (0)
34              NC(N)=NC(=O)c1nc(Cl)c(N)nc1N          no (0)
35  c(c1N)(C(=O)\N=C(\N)/N)nc(c(N2CCCCCC2)n1)Cl [5-(N,N-hexamethylene)amiloride]         yes (1)
36  O=C(NC[C@H]1CN(c2ccc(N3CCOCC3=O)cc2)C(=O)O1)c1ccc(Cl)s1 [Rivaroxaban]          no (0)
37       Nc1nc2ccc(Cl)cc2n2c(-c3ccccc3)nnc12          no (0)
38  O=C(c1cn(Cc2cncn2Cc2ccc(Br)cc2)cc1-c1cccc2ccccc12)N1CCOCC1          no (0)
